Where do the numbers come from? From patent US9499535B2.

Measured IC50 accompanies every entry in the list below.
assay-target: LRRK2 (Homo sapiens, UniProt Q5S007)
Sequence (Q5S007 970-2527 limits assumed): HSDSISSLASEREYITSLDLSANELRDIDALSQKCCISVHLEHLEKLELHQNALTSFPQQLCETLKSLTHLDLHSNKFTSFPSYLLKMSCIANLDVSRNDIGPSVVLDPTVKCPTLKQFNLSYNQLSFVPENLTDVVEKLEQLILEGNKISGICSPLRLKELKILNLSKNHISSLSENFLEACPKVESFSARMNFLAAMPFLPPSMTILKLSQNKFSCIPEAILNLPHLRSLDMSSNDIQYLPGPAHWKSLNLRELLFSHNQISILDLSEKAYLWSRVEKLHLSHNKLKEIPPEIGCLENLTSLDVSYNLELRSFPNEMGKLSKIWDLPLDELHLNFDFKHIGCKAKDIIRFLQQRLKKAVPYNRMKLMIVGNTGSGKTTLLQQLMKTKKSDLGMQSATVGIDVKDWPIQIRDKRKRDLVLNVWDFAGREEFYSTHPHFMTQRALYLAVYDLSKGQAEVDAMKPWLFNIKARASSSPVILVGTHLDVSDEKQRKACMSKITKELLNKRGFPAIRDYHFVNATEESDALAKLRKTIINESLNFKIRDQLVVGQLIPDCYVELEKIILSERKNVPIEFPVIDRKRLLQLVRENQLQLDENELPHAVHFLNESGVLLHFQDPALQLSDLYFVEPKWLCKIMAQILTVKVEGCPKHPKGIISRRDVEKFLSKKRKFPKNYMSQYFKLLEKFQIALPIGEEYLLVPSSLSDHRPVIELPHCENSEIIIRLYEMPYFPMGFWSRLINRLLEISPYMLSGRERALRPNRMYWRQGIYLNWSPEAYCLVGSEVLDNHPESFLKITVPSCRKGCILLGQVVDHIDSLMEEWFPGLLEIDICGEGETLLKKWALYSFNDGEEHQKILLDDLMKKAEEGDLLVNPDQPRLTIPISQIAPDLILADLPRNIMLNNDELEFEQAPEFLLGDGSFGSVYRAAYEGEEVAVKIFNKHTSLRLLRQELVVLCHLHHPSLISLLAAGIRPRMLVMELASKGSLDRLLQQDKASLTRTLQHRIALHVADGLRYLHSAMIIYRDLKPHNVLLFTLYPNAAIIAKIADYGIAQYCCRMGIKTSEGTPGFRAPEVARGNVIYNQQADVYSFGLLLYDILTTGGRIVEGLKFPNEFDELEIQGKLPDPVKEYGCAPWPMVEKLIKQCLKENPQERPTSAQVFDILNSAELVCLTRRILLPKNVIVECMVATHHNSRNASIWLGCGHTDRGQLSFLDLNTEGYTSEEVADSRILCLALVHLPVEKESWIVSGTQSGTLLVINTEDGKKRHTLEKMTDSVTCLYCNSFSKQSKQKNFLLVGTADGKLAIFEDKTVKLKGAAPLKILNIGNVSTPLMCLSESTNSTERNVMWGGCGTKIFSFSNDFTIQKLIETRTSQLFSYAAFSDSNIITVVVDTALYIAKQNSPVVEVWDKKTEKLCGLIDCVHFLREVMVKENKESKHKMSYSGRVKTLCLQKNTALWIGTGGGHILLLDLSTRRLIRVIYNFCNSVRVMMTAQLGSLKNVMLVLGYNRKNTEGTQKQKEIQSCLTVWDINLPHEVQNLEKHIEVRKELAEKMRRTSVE
protocol-text: LRRK2 assay (LanthaScreen Eu Kinase Binding Assay)
assay-setup: 5 nM LRRK2, 10 nM tracer 236, RT 1 h; read-out: LRRK2 Activites: IC50

# smiles, IC50
records = [
    ("COc1cc(OC)c2nc(Nc3ccc(CN(C)C)cc3)c3n[nH]cc3c2c1", "100 to 1000 nM"),
    ("COc1ccc2nc(Nc3cc(C)n[nH]3)c3[nH]ncc3c2c1", "10 to 100 nM"),
    ("COc1cc2nc(Nc3ccc4c(c3)NCCO4)c3n[nH]cc3c2cc1OC", "100 to 1000 nM"),
    ("Brc1ccc2nc(Nc3cc[nH]n3)c3n[nH]cc3c2c1", "100 to 1000 nM"),
    ("COc1ccc2nc(Nc3ccc(N4CCN(C(C)=O)CC4)cc3)c3n[nH]cc3c2c1", "10 to 100 nM"),
]
